# protocol summary: clinical
# measurement conditions: human, in vivo
Threshold-based label: CL renal under 1 mL/min/kg gives yes (1), CL renal not under 1 mL/min/kg gives no (0).

Lab note: confirm whether the reported CL renal for this molecule is below 1 mL/min/kg, equality not counting. molecule: Sc1ncnc2nc[nH]c12 [MERCAPTOPURINE ANHYDROUS]
yes (1)

CO/N=C(\C(=O)N[C@@H]1C(=O)N2C(C(=O)O)=C(COC(C)=O)CS[C@H]12)c1csc(N)n1 ?
no (0)

C[C@@H](CN1CC(=O)NC(=O)C1)N1CC(=O)NC(=O)C1 ?
no (0)

CCCCC/C=C\CCC(=O)N[C@H]1[C@H](Oc2c3cc4cc2Oc2ccc(cc2Cl)[C@@H](O[C@@H]2O[C@H](CO)[C@@H](O)[C@H](O)[C@H]2NC(C)=O)[C@@H]2NC(=O)[C@H](NC(=O)[C@@H]4NC(=O)[C@H]4NC(=O)[C@@H](Cc5ccc(c(Cl)c5)O3)NC(=O)[C@H](N)c3ccc(O)c(c3)Oc3cc(O)cc4c3)c3ccc(O)c(c3)-c3c(O[C@H]4O[C@H](CO)[C@@H](O)[C@H](O)[C@@H]4O)cc(O)cc3[C@@H](C(=O)O)NC2=O)O[C@H](CO)[C@@H](O)[C@@H]1O ?
yes (1)

CN1Cc2c(N)cccc2C(c2ccccc2)C1 (stereo not given) ?
no (0)

----------
# protocol summary: clinical
# measurement conditions: human, in vivo
reported metric: CL renal (mL/min/kg)
Please state the figure in mL/min/kg; there is no need to write the unit.

# CL renal lookup, item CCCCCNC(=N)N/N=C/c1c[nH]c2ccc(OC)cc12
0.36

Cc1onc(-c2ccccc2)c1C(=O)N[C@@H]1C(=O)N2[C@@H]1SC(C)(C)[C@@H]2C(=O)O ?
2.6

CNCCC=C1c2ccccc2CCc2ccccc21 ?
0.2

O=C(c1ccc(F)cc1)C1CCN(CCn2c(=O)[nH]c3ccccc3c2=O)CC1 ?
0.05

CC(=O)Nc1c(I)c(C(=O)O)c(I)c(N(C)C(C)=O)c1I ?
2.53

CCC1(c2ccccc2)C(=O)NC(=O)NC1=O ?
0.02

----------
# protocol summary: clinical
# measurement conditions: human, in vivo
Threshold-based label: CL renal under 1 mL/min/kg gives TRUE, CL renal not under 1 mL/min/kg gives FALSE.

Lab note: confirm whether the reported CL renal for this compound is below 1 mL/min/kg, equality not counting. compound: CN(C)CCCN1c2ccccc2CCc2cc(O)ccc21 [2-HYDROXYIMIPRAMINE]
TRUE

NC(=O)NO [HYDROXYUREA] ?
TRUE

Oc1ccc2c(c1)[C@@]13CCCC[C@@]1(O)[C@@H](C2)N(CC1CCC1)CC3 ?
FALSE

NC(=O)c1ncn([C@@H]2O[C@H](CO)[C@@H](O)[C@H]2O)n1 ?
FALSE

CC(C)c1nc(N(C)S(C)(=O)=O)nc(-c2ccc(F)cc2)c1/C=C/[C@@H](O)C[C@@H](O)CC(=O)O ?
FALSE

COc1ccc([C@@H]2Sc3ccccc3N(CCN(C)C)C(=O)[C@@H]2OC(C)=O)cc1 ?
FALSE

Cc1c(OCC(F)(F)F)ccnc1C[S+]([O-])c1nc2ccccc2[nH]1 (stereo not drawn) ?
TRUE

CCCNC(=O)NS(=O)(=O)c1ccc(Cl)cc1 [CHLORPROPAMIDE] ?
TRUE

CC[C@H]1OC(=O)[C@H](C)C(=O)[C@H](C)[C@@H](O[C@@H]2O[C@H](C)C[C@H](N(C)C)[C@H]2O)[C@](C)(OC)C[C@@H](C)C(=O)[C@H](C)[C@H]2N(CCCCn3cnc(-c4cccnc4)c3)C(=O)O[C@]12C ?
FALSE

CN(C)CCC(c1ccc(Cl)cc1)c1ccccn1 (stereo not drawn) ?
TRUE

NC(N)=Nc1nc(CSCCC(N)=NS(N)(=O)=O)cs1 ?
FALSE

N[C@@H](Cc1ccc(N(CCCl)CCCl)cc1)C(=O)O ?
TRUE

C[C@@H](O)[C@H]1C(=O)N2C(C(=O)O)=C(S[C@H]3C[C@@H](C(=O)N4CC[C@H](NC(=O)CNC(=N)N)C4)N(C)C3)[C@H](C)[C@H]12 ?
FALSE

O=C(NCCN1CCOCC1)c1ccc(Cl)cc1 [MOCLOBEMIDE] ?
TRUE

O=C(O)P(=O)(O)O ?
FALSE

CCN(CC)CCCC(C)Nc1ccnc2cc(Cl)ccc12 (stereo not drawn) ?
FALSE

COc1ccc(C(CN(C)C)C2(O)CCCCC2)cc1 (stereo not drawn) ?
TRUE

----------
# protocol summary: clinical
# measurement conditions: human, in vivo
I'd appreciate it if you could supply CL renal values for the items below.
Please state the figure in mL/min/kg; there is no need to write the unit.

# CL renal lookup, item O=C(NCCNCC(O)COc1ccc(O)cc1)N1CCOCC1 (stereo not given) [XAMOTEROL]
1.86

O=P(O)(O)C(O)(Cc1cccnc1)P(=O)(O)O [RISEDRONIC ACID] ?
1.31

CC(C)(C)NC(=O)[C@@H]1CN(Cc2cccnc2)CCN1C[C@@H](O)C[C@@H](Cc1ccccc1)C(=O)N[C@H]1c2ccccc2C[C@H]1O.O ?
1.53

Nc1cc(-c2ccncc2)c[nH]c1=O [INAMRINONE] ?
3.1

O=C1CN=C(c2ccccn2)c2cc(Br)ccc2N1 [BROMAZEPAM] ?
0.26

Cc1cccc(C)c1OCC(C)N (stereo not given) [MEXILETINE] ?
0.83

COc1cc([C@@H]2c3cc4c(cc3[C@@H](O[C@@H]3O[C@@H]5CO[C@@H](c6cccs6)O[C@H]5[C@H](O)[C@H]3O)[C@H]3COC(=O)[C@H]23)OCO4)cc(OC)c1O [TENIPOSIDE] ?
0.02

Nc1nc(=O)[nH]cc1F [FLUCYTOSINE] ?
1.98

O=C1c2c(O)ccc(O)c2C(=O)c2c(NCCNCCO)ccc(NCCNCCO)c21 [MITOXANTRONE] ?
0.5

CCOC(=O)C1(c2ccccc2)CCN(C)CC1 [MEPERIDINE] ?
0.25

COc1ccc2[nH]c([S+]([O-])Cc3ncc(C)c(OC)c3C)nc2c1 (stereo not given) [OMEPRAZOLE] ?
0.08

CCCc1nc2c(C)cc(-c3nc4ccccc4n3C)cc2n1Cc1ccc(-c2ccccc2C(=O)O)cc1 ?
0.08

CC(C)NCC(O)c1ccc(NS(C)(=O)=O)cc1 (stereo not given) [SOTALOL] ?
1.7

OCCN1CCN(CCCN2c3ccccc3Sc3ccc(Cl)cc32)CC1 [PERPHENAZINE] ?
5

CO/N=C(\C(=O)N[C@@H]1C(=O)N2C(C(=O)O)=C(COC(N)=O)CS[C@H]12)c1ccco1 [CEFUROXIME] ?
2.11

CN1CCCC(n2nc(Cc3ccc(Cl)cc3)c3ccccc3c2=O)CC1 (stereo not given) [AZELASTINE] ?
0.18

C[C@@H](O)[C@H]1C(=O)N2C(C(=O)O)=C(S[C@@H]3CN[C@H](C(=O)N(C)C)C3)[C@H](C)[C@H]12 [MEROPENEM] ?
2.73

COc1ccc2cc1Oc1cc3c(cc1OC)CC[N+](C)(C)[C@H]3Cc1ccc(cc1)Oc1c(OC)c(OC)cc3c1[C@@H](C2)[N+](C)(C)CC3.[I-].[I-] [METOCURINE IODIDE] ?
0.52

CCOc1ccccc1OC(c1ccccc1)C1CNCCO1 (stereo not given) [REBOXETINE] ?
0.04

O=C1CN=C(c2ccccc2)c2cc([N+](=O)[O-])ccc2N1 [NITRAZEPAM] ?
0.01

CC[C@@]1(O)C(=O)OCc2c1cc1n(c2=O)Cc2c-1nc1ccccc1c2N ?
0.56

Cc1cc(=O)n(-c2ccccc2)n1C [ANTIPYRINE] ?
0.02

COc1cc(OC)c(C(=O)CCCN2CCCC2)c(OC)c1 [BUFLOMEDIL] ?
1.3

COc1cccc2c1C(=O)c1c(O)c3c(c(O)c1C2=O)C[C@@](O)(C(=O)CO)C[C@@H]3O[C@H]1C[C@H](N)[C@H](O)[C@H](C)O1 [DOXORUBICIN] ?
1.83

O=C(c1ccccc1)c1ccc2n1CCC2C(=O)O (stereo not given) [KETOROLAC] ?
0.2

COCCc1ccc(OCC(O)CNC(C)C)cc1 (stereo not given) [METOPROLOL] ?
0.65

CSc1ccc(C(=O)c2[nH]c(=O)[nH]c2C)cc1 [ENOXIMONE] ?
0.1

Clc1cccc(Cl)c1N=C1NCCN1 [CLONIDINE] ?
2.48

COc1ccc2c3c1O[C@H]1C(=O)CC[C@@]4(O)[C@@H](C2)N(C)CC[C@]314 [OXYCODONE] ?
1.1

CC1(C)S[C@@H]2[C@H](NC(=O)[C@H](N)c3ccc(O)cc3)C(=O)N2[C@H]1C(=O)O [AMOXICILLIN] ?
1.89
